Target: Acetylcholinesterase (Homo sapiens) (UniProt P22303)
Sequence (P22303 whole entry, looked up): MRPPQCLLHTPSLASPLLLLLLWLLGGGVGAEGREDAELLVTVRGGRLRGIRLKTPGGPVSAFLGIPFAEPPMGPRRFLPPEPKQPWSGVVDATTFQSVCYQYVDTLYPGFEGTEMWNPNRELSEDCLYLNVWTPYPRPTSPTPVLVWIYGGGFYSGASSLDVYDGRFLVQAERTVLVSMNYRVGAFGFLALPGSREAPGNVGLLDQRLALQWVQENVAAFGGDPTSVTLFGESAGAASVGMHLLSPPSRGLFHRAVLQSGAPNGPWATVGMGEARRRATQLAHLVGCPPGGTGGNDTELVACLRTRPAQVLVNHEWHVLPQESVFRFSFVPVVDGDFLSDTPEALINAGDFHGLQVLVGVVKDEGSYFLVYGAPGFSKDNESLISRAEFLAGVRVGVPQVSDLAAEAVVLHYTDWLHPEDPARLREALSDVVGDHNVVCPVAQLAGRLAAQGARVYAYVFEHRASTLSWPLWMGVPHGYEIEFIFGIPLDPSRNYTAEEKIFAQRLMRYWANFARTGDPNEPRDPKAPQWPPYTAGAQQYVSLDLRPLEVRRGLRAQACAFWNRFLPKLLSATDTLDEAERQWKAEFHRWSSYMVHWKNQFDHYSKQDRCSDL
Test: Acetylcholinesterase (AChE) small molecule antagonists: enzyme-based qHTS assay with human liver microsomes (AID 1347399); further: nearly all actives have a fitted effect of over 60% in size
Conditions: qHTS inhibition; series mostly up to 115 µM
Active and inactive are the calls of the source. The call rests on the fitted dose curve.

[
  {
    "MOLECULE": "CCOC(=O)c1ccc(N(C)C)cc1",
    "ASSAY TARGET": "Acetylcholinesterase (Homo sapiens) (UniProt P22303)",
    "outcome": "inactive"
  },
  {
    "MOLECULE": "CCCCCCCCCCCCSCCOCCO",
    "ASSAY TARGET": "Acetylcholinesterase (Homo sapiens) (UniProt P22303)",
    "outcome": "inactive"
  },
  {
    "MOLECULE": "Cc1ccc(C(C)OC(=O)C2(C)CCC(C(=O)O)C2(C)C)cc1 (centres undefined)",
    "ASSAY TARGET": "Acetylcholinesterase (Homo sapiens) (UniProt P22303)",
    "outcome": "inactive"
  },
  {
    "MOLECULE": "Cc1cc(-n2nc3ccc(Cl)cc3n2)c(O)c(C(C)(C)C)c1",
    "ASSAY TARGET": "Acetylcholinesterase (Homo sapiens) (UniProt P22303)",
    "outcome": "inactive"
  },
  {
    "MOLECULE": "S=C([S-])NCCNC(=S)[S-].[Mn+2]",
    "ASSAY TARGET": "Acetylcholinesterase (Homo sapiens) (UniProt P22303)",
    "outcome": "inactive"
  },
  {
    "MOLECULE": "CCc1ccc(O)c(OC)c1",
    "ASSAY TARGET": "Acetylcholinesterase (Homo sapiens) (UniProt P22303)",
    "outcome": "inactive"
  },
  {
    "MOLECULE": "Cc1cc(-c2ccc(N=Nc3cc(S(=O)(=O)O)c4ccccc4c3N)c(C)c2)ccc1N=Nc1cc(S(=O)(=O)O)c2ccccc2c1N",
    "ASSAY TARGET": "Acetylcholinesterase (Homo sapiens) (UniProt P22303)",
    "outcome": "inactive"
  },
  {
    "MOLECULE": "CC1=C(/C=C/C(C)=C/C=C/C(C)=C/C=O)C(C)(C)CCC1",
    "ASSAY TARGET": "Acetylcholinesterase (Homo sapiens) (UniProt P22303)",
    "outcome": "inactive"
  },
  {
    "MOLECULE": "CCN(CC)CCc1nc(-c2ccccc2)no1",
    "ASSAY TARGET": "Acetylcholinesterase (Homo sapiens) (UniProt P22303)",
    "outcome": "inactive"
  },
  {
    "MOLECULE": "COP(=O)(O)OP(=O)(O)OC",
    "ASSAY TARGET": "Acetylcholinesterase (Homo sapiens) (UniProt P22303)",
    "outcome": "inactive"
  },
  {
    "MOLECULE": "Cc1ccc2sc3cccc(C)c3c2c1",
    "ASSAY TARGET": "Acetylcholinesterase (Homo sapiens) (UniProt P22303)",
    "outcome": "inactive"
  },
  {
    "MOLECULE": "COCc1nnc(-c2ccc[n+]([O-])c2)n1-c1c(Cl)c(Cl)cc2[nH]c(=O)c(=O)[nH]c12",
    "ASSAY TARGET": "Acetylcholinesterase (Homo sapiens) (UniProt P22303)",
    "outcome": "inactive"
  },
  {
    "MOLECULE": "CCCCCCCCCCCCCCCCCCNC(=O)OC1CCN(C(=O)OC[C@H](COC(=O)N(Cc2cccc[n+]2CC)C(=O)c2ccccc2OC)OC)CC1",
    "ASSAY TARGET": "Acetylcholinesterase (Homo sapiens) (UniProt P22303)",
    "outcome": "inactive"
  },
  {
    "MOLECULE": "Cn1cc(C(=O)[C@@H]2CCc3nc[nH]c3C2)c2ccccc21",
    "ASSAY TARGET": "Acetylcholinesterase (Homo sapiens) (UniProt P22303)",
    "outcome": "inactive"
  }
]
